tested on: B. anthracis GFP sterne vegetative cells; experiment: microbe, parasite or virus in culture; assay type: cell-based; details: Bacillus anthracis, read-out: MIC B. anthracis vegetative cells
Measured property: MIC

c1cc(-c2cc3ccc(C4=NCCN4)cc3[nH]2)ccc1C1=NCCN1 > 16.1 µg/mL
O=C(Nc1ccc(C2=NCCN2)cc1)c1cc2cc(C3=NCCN3)ccc2o1 > 17.8 µg/mL
O=C(Nc1ccc(C2=NCCN2)cc1)c1cc2ccc(C3=NCCN3)cc2o1 > 17.8 µg/mL

Recorded result, C(=C\c1cc2cc(C3=NCCN3)ccc2o1)/c1cc2cc(C3=NCCN3)ccc2o1 , MIC: > 18.8 µg/mL

Recorded result, OCCn1c(C=Cc2nc3ccccc3[nH]2)nc2ccccc21 , MIC: > 12.2 µg/mL

Recorded result, CC(O)C(=O)O.N=C(N)c1ccc(-c2cc3ccc(C(=N)N)cc3s2)cc1 , MIC: > 19 µg/mL

Recorded result, N=C(N)c1ccc(-c2cc(-c3ccc(C(=N)N)cc3)on2)cc1 , MIC: > 15.1 µg/mL

Recorded result, c1cc2cc(-c3cc4ccc(C5=NCCN5)cc4[nH]3)[nH]c2cc1C1=NCCN1 , MIC: 1.1 µg/mL

Recorded result, C(=Cc1nc2ccccc2[nH]1)c1nc2ccccc2[nH]1 , MIC: > 10.4 µg/mL
